Measured values drawn from ChEMBL document CHEMBL5236638 for this set.

Procedure details: Metabolic stability in CD-1 mouse liver S9 fraction assessed as half-life at 2 uM measured upto 40 mins in the presence of NADPH by HPLC-MS analysis
Type: ADME, subcellular
Test settings: s9, 40 min
Respond with T for t1/2 values of 0.9 min and above, F for values below.

- Compound: "Cc1cc(OCc2nc(N)nc(NCCc3cccc(F)c3)n2)cc(N2CCCC2=O)c1"
  Group label: "T"
- Compound: "Cc1cc(OCc2nc(N)nc(NCC(C)c3cccc(Cl)c3)n2)cc(N2CCCC2=O)c1 (stereo not given)"
  Group label: "F"
- Compound: "Cc1cc(OCc2nc(N)nc(NCCc3cc(Cl)ccc3Cl)n2)cc(N2CCCC2=O)c1"
  Group label: "T"
- Compound: "COC(CNc1nc(N)nc(COc2cc(C)cc(N3CCCC3=O)c2)n1)c1cccc(Cl)c1 (stereo not given)"
  Group label: "T"
- Compound: "Cc1cc(OCc2nc(N)nc(NC3(Cc4cccc(Cl)c4)CC3)n2)cc(N2CCCC2=O)c1"
  Group label: "F"
- Compound: "Cc1cc(OCc2nc(N)nc(NCCC3CCCCC3(F)F)n2)cc(N2CCCC2=O)c1 (stereo not given)"
  Group label: "F"
- Compound: "Cc1cc(OCc2nc(N)nc(NCC(c3cccc(Cl)c3)N3CCCC3)n2)cc(N2CCCC2=O)c1 (stereo not given)"
  Group label: "T"
- Compound: "Cc1cc(OCc2nc(N)nc(NCCc3cccc4c3OC(F)(F)O4)n2)cc(N2CCCC2=O)c1"
  Group label: "F"
- Compound: "Cc1cc(OCc2nc(N)nc(NCCc3cccc(Cl)c3)n2)cc(N2CCCC2=O)c1"
  Group label: "T"
